Origin of values: the supplement of paper PMC10503962

Tested on: Trichuris muris adult worms
Assay: mean motility score (Paragon pixel variance) of adult worms (arbitrary units); higher = more motile worms, i.e. less anthelmintic effect; extreme values may be limits of the assay
Settings: 100 µM; 24 h
PARAMETER MEASURED: mean motility score

[
  {
    "STRUCTURE": "O=C(O)Cc1ccc(-c2ccccc2)cc1",
    "ASSAY SYSTEM": "Trichuris muris adult worms",
    "PARAMETER MEASURED": "mean motility score",
    "REPORTED": 3440
  },
  {
    "STRUCTURE": "CN(C)C/C=C/C(=O)Nc1cc2c(Nc3ccc(F)c(Cl)c3)ncnc2cc1O[C@H]1CCOC1",
    "ASSAY SYSTEM": "Trichuris muris adult worms",
    "PARAMETER MEASURED": "mean motility score",
    "REPORTED": 0
  },
  {
    "STRUCTURE": "FC(F)(F)C(F)(F)C(F)(F)C(F)(F)C(F)(F)C(F)(F)C(F)(F)C(F)(F)Br",
    "ASSAY SYSTEM": "Trichuris muris adult worms",
    "PARAMETER MEASURED": "mean motility score",
    "REPORTED": 1630
  }
]

Any idea what mean motility score was measured for Oc1nc2ccccc2n1CCCN1CCC(n2c(O)nc3cc(Cl)ccc32)CC1 ? 3910

Any idea what mean motility score was measured for CCC1(c2ccccc2)C(=O)NCNC1=O ? 3160

###

System: Trichuris muris adult worms
Experiment: mean motility score (Paragon pixel variance) of adult worms (arbitrary units); higher = more motile worms, i.e. less anthelmintic effect; extreme values may be limits of the assay
Conditions: 100 µM; 24 h
Reported mean motility score values for a set of molecules

Example molecules with recorded mean motility score:
[
  {
    "MOLECULE": "Cc1nc2n(c(=O)c1CCN1CCC(c3noc4cc(F)ccc34)CC1)CCCC2",
    "ASSAY SYSTEM": "Trichuris muris adult worms",
    "PARAMETER MEASURED": "mean motility score",
    "REPORTED": 2130
  },
  {
    "MOLECULE": "O=C1CCc2ccc(OCCCCN3CCN(c4cccc(Cl)c4Cl)CC3)cc2N1",
    "ASSAY SYSTEM": "Trichuris muris adult worms",
    "PARAMETER MEASURED": "mean motility score",
    "REPORTED": 3030
  },
  {
    "MOLECULE": "O=C1c2ccccc2C(=O)C1c1ccccc1",
    "ASSAY SYSTEM": "Trichuris muris adult worms",
    "PARAMETER MEASURED": "mean motility score",
    "REPORTED": 4420
  },
  {
    "MOLECULE": "COC(=O)c1ccccc1O [methyl salicylate]",
    "ASSAY SYSTEM": "Trichuris muris adult worms",
    "PARAMETER MEASURED": "mean motility score",
    "REPORTED": 3260
  },
  {
    "MOLECULE": "COC1=CC(=O)C[C@@H](C)[C@]12Oc1c(Cl)c(OC)cc(OC)c1C2=O",
    "ASSAY SYSTEM": "Trichuris muris adult worms",
    "PARAMETER MEASURED": "mean motility score",
    "REPORTED": 1250
  },
  {
    "MOLECULE": "COc1ccc(Cl)cc1C(=O)NCCc1ccc(S(=O)(=O)NC(=O)NC2CCCCC2)cc1 [glyburide]",
    "ASSAY SYSTEM": "Trichuris muris adult worms",
    "PARAMETER MEASURED": "mean motility score",
    "REPORTED": 2300
  },
  {
    "MOLECULE": "C[C@@H]1C[C@H]2[C@@H]3CCC4=CC(=O)C=C[C@]4(C)[C@@]3(F)[C@@H](O)C[C@]2(C)[C@@]1(O)C(=O)CO",
    "ASSAY SYSTEM": "Trichuris muris adult worms",
    "PARAMETER MEASURED": "mean motility score",
    "REPORTED": 1780
  },
  {
    "MOLECULE": "O=C(c1ccc(F)cc1)C1CCN(CCn2c(=O)[nH]c3ccccc3c2=O)CC1",
    "ASSAY SYSTEM": "Trichuris muris adult worms",
    "PARAMETER MEASURED": "mean motility score",
    "REPORTED": 3020
  },
  {
    "MOLECULE": "NS(=O)(=O)c1cc2c(cc1Cl)NC(CSCc1ccccc1)=NS2(=O)=O [benzthiazide]",
    "ASSAY SYSTEM": "Trichuris muris adult worms",
    "PARAMETER MEASURED": "mean motility score",
    "REPORTED": 3040
  },
  {
    "MOLECULE": "CCOC(=O)N1CCC(=C2c3ccc(Cl)cc3CCc3cccnc32)CC1.Cl [loratadine hydrochloride]",
    "ASSAY SYSTEM": "Trichuris muris adult worms",
    "PARAMETER MEASURED": "mean motility score",
    "REPORTED": 0
  }
]

Any idea what mean motility score was measured for CC[C@H]1OC(=O)[C@H](C)[C@@H](O[C@H]2C[C@@](C)(OC)[C@@H](O)[C@H](C)O2)[C@H](C)[C@@H](O[C@@H]2O[C@H](C)C[C@H](N(C)C)[C@H]2O)[C@](C)(OC)C[C@@H](C)C(=O)[C@H](C)[C@@H](O)[C@]1(C)O ? 2330

Any idea what mean motility score was measured for CC1=NS(=O)(=O)c2cc(Cl)ccc2N1 [diazoxide] ? 3260

Any idea what mean motility score was measured for CCOC(=O)c1ncn2c1CN(C)C(=O)c1cc(F)ccc1-2 ? 3230

Any idea what mean motility score was measured for CCc1nc(N)nc(N)c1-c1ccc(Cl)cc1 ? 2930

Any idea what mean motility score was measured for N=C(N)NCCC[C@H](N)C(=O)O ? 2980

Any idea what mean motility score was measured for CCCN[C@H]1CCc2nc(N)sc2C1.Cl.Cl [pramipexole dihydrochloride] ? 3620

Any idea what mean motility score was measured for NS(=O)(=O)Cc1noc2ccccc12 [zonisamide] ? 2960

###

System: Trichuris muris adult worms
Assay: mean motility score (Paragon pixel variance) of adult worms (arbitrary units); higher = more motile worms, i.e. less anthelmintic effect; extreme values may be limits of the assay
Conditions: 100 µM; 24 h
Reported mean motility score values for a set of molecules
API note: the answer field is a bare number with no unit suffix.

[
  {
    "STRUCTURE": "C[C@H](CS)C(=O)N1CCC[C@H]1C(=O)O",
    "mean motility score": 3330
  },
  {
    "STRUCTURE": "CN(C/C=C/C#CC(C)(C)C)Cc1cccc2ccccc12",
    "mean motility score": 4560
  }
]

Now consider a different molecule.
Any idea what mean motility score was measured for CO[C@H]1/C=C/O[C@@]2(C)Oc3c(C)c(O)c4c(O)c(c(/C=N/N5CCN(C)CC5)c(O)c4c3C2=O)NC(=O)/C(C)=C\C=C\[C@H](C)[C@H](O)[C@@H](C)[C@@H](O)[C@@H](C)[C@H](OC(C)=O)[C@@H]1C ? 1330

###

Test system: Trichuris muris adult worms
Assay: mean motility score (Paragon pixel variance) of adult worms (arbitrary units); higher = more motile worms, i.e. less anthelmintic effect; extreme values may be limits of the assay
Conditions: 100 µM; 24 h
Please mark yes if the recorded mean motility score is equal to or greater than 3000, and no if it falls below.

Examples with answers:
[
  {
    "MOLECULE": "NC[C@H](O)c1ccc(O)c(O)c1",
    "ASSAY SYSTEM": "Trichuris muris adult worms",
    "QUALITATIVE LABEL": "yes"
  },
  {
    "MOLECULE": "COc1cc2nccc(Oc3ccc(NC(=O)NC4CC4)c(Cl)c3)c2cc1C(N)=O",
    "ASSAY SYSTEM": "Trichuris muris adult worms",
    "QUALITATIVE LABEL": "no"
  },
  {
    "MOLECULE": "NNCCc1ccccc1",
    "ASSAY SYSTEM": "Trichuris muris adult worms",
    "QUALITATIVE LABEL": "yes"
  }
]

Does the reported mean motility score for CCCCC1C(=O)N(c2ccccc2)N(c2ccccc2)C1=O fall at or above the 3000 mark? no

Does the reported mean motility score for COc1cc2nc(N(C)CCCNC(=O)C3CCCO3)nc(N)c2cc1OC (stereo unspecified) fall at or above the 3000 mark? no

Does the reported mean motility score for Cc1cc2c(s1)Nc1ccccc1N=C2N1CCN(C)CC1 fall at or above the 3000 mark? no

Does the reported mean motility score for CC(C)[C@H](N)C(=O)OCCOCn1cnc2c(=O)nc(N)[nH]c21.Cl [valacyclovir hydrochloride] fall at or above the 3000 mark? yes

Does the reported mean motility score for COc1ccc(CCN(C)CCCC(C#N)(c2ccc(OC)c(OC)c2)C(C)C)cc1OC (stereo unspecified) fall at or above the 3000 mark? yes

Does the reported mean motility score for CN/C(=N/CCSCc1nc[nH]c1C)NC#N fall at or above the 3000 mark? no

Does the reported mean motility score for Clc1ccc2c(c1)CCc1cccnc1C2=C1CCNCC1 fall at or above the 3000 mark? no

Does the reported mean motility score for Cc1ccc(C)c(OCCCC(C)(C)C(=O)O)c1 fall at or above the 3000 mark? yes

Does the reported mean motility score for CCN(CC)CCNC(=O)c1cc(Cl)c(N)cc1OC [metoclopramide] fall at or above the 3000 mark? yes

Does the reported mean motility score for O=C(NCCO[N+](=O)[O-])c1cccnc1 fall at or above the 3000 mark? no

Does the reported mean motility score for Cc1ccc(C(=O)Nc2ccc(CN3CCN(C)CC3)c(C(F)(F)F)c2)cc1C#Cc1cnc2cccnn12 fall at or above the 3000 mark? no

Does the reported mean motility score for CC(C)O fall at or above the 3000 mark? no

Does the reported mean motility score for Nc1ccc(C(=O)O)c(O)c1 fall at or above the 3000 mark? yes

Does the reported mean motility score for CC(=O)c1c(C)c2cnc(Nc3ccc(N4CCNCC4)cn3)nc2n(C2CCCC2)c1=O fall at or above the 3000 mark? no
